experimental_target: T1, human MSLN-hFc protein (Acro, Cat. No. MSN-H5253) (human, UniProt Q13421 296-580)
T1 construct: bought protein; also called human MSLN full-length protein; not shown: human Fc (hFc) of the bought protein
T1 sequence (Q13421 other isoform, or with tags, fused parts or gaps limits assumed): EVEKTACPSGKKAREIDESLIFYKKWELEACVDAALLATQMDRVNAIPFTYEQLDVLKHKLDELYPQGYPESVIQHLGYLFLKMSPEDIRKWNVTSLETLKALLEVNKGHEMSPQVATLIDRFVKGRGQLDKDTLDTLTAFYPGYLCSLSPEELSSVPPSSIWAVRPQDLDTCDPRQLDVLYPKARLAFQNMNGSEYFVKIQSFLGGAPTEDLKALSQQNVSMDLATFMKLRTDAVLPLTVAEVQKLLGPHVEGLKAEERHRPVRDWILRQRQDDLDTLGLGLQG
assay_comment: ELISA, coated human MSLN-hFc, antibody 0.1 nM
reported_endpoint: OD450 nm
I'd appreciate a reply containing only the number, no unit.

{"binder": "F2.23.12-H1 (scFv, not shown: small tags and cut ends, also called S009-F2.23.12 humanized VH1 + VL1) scFv: EVQLVQSGAEVKKPGASVKVSCKASGYTFTNYWMHWVRQAPGQGLEWMGNINPSNGGPYYNERFRSRVTMTVDKSTSTVYMELSSLRSEDTAVYYCARPYYGSSYGYFDYWGQGTTVTVSSGGGGSGGGGSGGGGSDIQMTQSPSSLSASVGDRVTITCKASQDINKYIAWYQQKPGKAPKLLIHYTSELQPGVPSRFSGSGSGTDFTFTISSLQPEDIATYYCLQYANPLRTFGGGTKVEIK", "OD450 nm": 0.09}
{"binder": "F2.23.12-H16 (scFv, not shown: small tags and cut ends, also called S009-F2.23.12 humanized VH4 + VL4) scFv: EVQLVQSGAEVKKPGASVKVSCKASGYTFTNYWMHWVRQAPGQGLEWMGNINPSQGGPYYNERFRSRVTMTVDKSTSTAYMELSSLRSEDTAVYYCARPYYGSSYGYFDYWGQGTTVTVSSGGGGSGGGGSGGGGSDIQMTQSPSSLSASVGDRVTITCKASQDINKYIAWYQHKPGKAPKLLIHYTSELQPGVPSRFSGSGSGRDYTFTISSLQPEDIATYYCLQYANPLRTFGGGTKVEIK", "OD450 nm": 0.07}
{"binder": "F2.23.12-H8 (scFv, not shown: small tags and cut ends, also called S009-F2.23.12 humanized VH2 + VL4) scFv: EVQLVQSGAEVKKPGASVKVSCKASGYTFTNYWMHWVRQAPGQGLEWMGNINPSNGGPYYNERFRSRVTMTVDKSTSTAYMELSSLRSEDTAVYYCARPYYGSSYGYFDYWGQGTTVTVSSGGGGSGGGGSGGGGSDIQMTQSPSSLSASVGDRVTITCKASQDINKYIAWYQHKPGKAPKLLIHYTSELQPGVPSRFSGSGSGRDYTFTISSLQPEDIATYYCLQYANPLRTFGGGTKVEIK", "OD450 nm": 0.09}
{"binder": "F2.23.12-H13 (scFv, not shown: small tags and cut ends, also called S009-F2.23.12 humanized VH4 + VL1) scFv: EVQLVQSGAEVKKPGASVKVSCKASGYTFTNYWMHWVRQAPGQGLEWMGNINPSQGGPYYNERFRSRVTMTVDKSTSTAYMELSSLRSEDTAVYYCARPYYGSSYGYFDYWGQGTTVTVSSGGGGSGGGGSGGGGSDIQMTQSPSSLSASVGDRVTITCKASQDINKYIAWYQQKPGKAPKLLIHYTSELQPGVPSRFSGSGSGTDFTFTISSLQPEDIATYYCLQYANPLRTFGGGTKVEIK", "OD450 nm": 0.08}
{"binder": "F2.23.12-H4 (scFv, not shown: small tags and cut ends, also called S009-F2.23.12 humanized VH1 + VL4) scFv: EVQLVQSGAEVKKPGASVKVSCKASGYTFTNYWMHWVRQAPGQGLEWMGNINPSNGGPYYNERFRSRVTMTVDKSTSTVYMELSSLRSEDTAVYYCARPYYGSSYGYFDYWGQGTTVTVSSGGGGSGGGGSGGGGSDIQMTQSPSSLSASVGDRVTITCKASQDINKYIAWYQHKPGKAPKLLIHYTSELQPGVPSRFSGSGSGRDYTFTISSLQPEDIATYYCLQYANPLRTFGGGTKVEIK", "OD450 nm": 0.18}

With those in mind, consider the next binder.
[in] Query (binder): F2.23.12-H5 (scFv, not shown: small tags and cut ends, also called S009-F2.23.12 humanized VH2 + VL1) scFv: EVQLVQSGAEVKKPGASVKVSCKASGYTFTNYWMHWVRQAPGQGLEWMGNINPSNGGPYYNERFRSRVTMTVDKSTSTAYMELSSLRSEDTAVYYCARPYYGSSYGYFDYWGQGTTVTVSSGGGGSGGGGSGGGGSDIQMTQSPSSLSASVGDRVTITCKASQDINKYIAWYQQKPGKAPKLLIHYTSELQPGVPSRFSGSGSGTDFTFTISSLQPEDIATYYCLQYANPLRTFGGGTKVEIK ; field requested: OD450 nm
[out] 0.09
